For each record, write down the corresponding Kd.
Molecular target: T1, human CD22-ECD-His protein (human, UniProt P20273 20-687)
T1 construct: Recombinant, from HEK293E cells; also called hCD22-ECD-His; human CD22-His protein; not shown: His tag
T1 sequence: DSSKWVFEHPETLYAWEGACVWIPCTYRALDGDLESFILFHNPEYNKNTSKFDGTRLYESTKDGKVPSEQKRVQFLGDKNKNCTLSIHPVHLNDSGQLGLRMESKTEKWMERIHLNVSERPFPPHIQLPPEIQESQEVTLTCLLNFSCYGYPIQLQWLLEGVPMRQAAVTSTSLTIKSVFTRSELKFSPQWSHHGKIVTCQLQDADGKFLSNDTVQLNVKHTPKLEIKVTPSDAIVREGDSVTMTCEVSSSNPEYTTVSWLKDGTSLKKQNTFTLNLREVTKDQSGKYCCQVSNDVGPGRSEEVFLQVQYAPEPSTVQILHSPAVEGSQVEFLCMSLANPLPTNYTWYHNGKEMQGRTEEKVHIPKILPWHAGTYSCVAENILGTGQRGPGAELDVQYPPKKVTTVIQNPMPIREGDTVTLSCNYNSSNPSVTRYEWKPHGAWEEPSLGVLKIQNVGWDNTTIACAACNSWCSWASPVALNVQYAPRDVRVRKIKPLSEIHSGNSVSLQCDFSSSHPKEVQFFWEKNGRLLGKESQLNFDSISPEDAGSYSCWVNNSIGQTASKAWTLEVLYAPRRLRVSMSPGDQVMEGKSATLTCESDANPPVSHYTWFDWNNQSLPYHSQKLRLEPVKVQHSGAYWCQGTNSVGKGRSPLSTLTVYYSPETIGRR
Test: SPR (Biacore), antibody captured on Protein A chip, CD22-ECD-His in solution
Protocol: Sample buffer and running buffer were HBS-EP+(10 mM HEPES, 150 mM NaCl, 3 mM EDTA, 0.05% surfactant P20) (GE Healthcare; BR-1006-69). The flow-through cell was set to 25° C. The sample block was set to 16° C. Both were pretreated with the running buffer. […] The binding and dissociation process of the antibody and the antigen protein was recorded, and finally Glycine pH 1.5 (GE Healthcare; BR-1003-54) was used to complete chip regeneration. […]
# value in nM; strip the unit string

Query block: Query (binder): F2.343.16 (antibody, human IgG1, lambda, V domains shown, Chimeric IgG1 lambda) VH: QVQLKQSGPGLVQPSQSLSITCTVSGFSLTGYGVQWVRQSPGKGLEWLGVIWGGGGTDYNAAFISRLNIIKDNSKSQVFFKMNSLQADDTAIYYCARYSKYGHFDVWGTGTAVTVSS VL: QAVVTQESALTTSPGETVTLTCRSSTGAVTTSNYANWVQEKPDHLFTGLIGGTYNRVPGVPARFSGSLIGDKAALTITGAQTEDEAIYFCALWYSNHFWVFGGGTKLTVLG ; field requested: Kd
Result block: 4970

Query block: Recorded Kd for F2.104.10 (antibody, human IgG1, lambda, V domains shown, Chimeric IgG1 lambda) VH: EVQLVESGGGFVKPGGSLKLSCAASGFTFSDYGMNWFRQAPEKGLEWVAYISRGSHTIYYADTVKGRFTISRDNAENTLFLQMTSLRSNDTAMYYCVRMAGYYAMDYWGQGTSLTVSS VL: QLVLTQSSSASFSLGASAKLTCTLSSQHSSYIIEWYQQQPLKPPKYVMEVKKDGSHSTGDGIPDRFSGSSSGADRYLSISNIQSEDEAIYICGVGDTIKEQFVYVFGGGTKVTVLG , please?
Result block: 8.54

Query block: Data request, read-out Kd, for F1.224.1 (antibody, human IgG1, kappa, V domains shown, Chimeric IgG1 kappa) VH: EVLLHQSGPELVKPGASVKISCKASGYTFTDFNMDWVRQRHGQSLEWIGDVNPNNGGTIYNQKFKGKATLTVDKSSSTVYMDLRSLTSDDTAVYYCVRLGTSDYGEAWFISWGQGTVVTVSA VL: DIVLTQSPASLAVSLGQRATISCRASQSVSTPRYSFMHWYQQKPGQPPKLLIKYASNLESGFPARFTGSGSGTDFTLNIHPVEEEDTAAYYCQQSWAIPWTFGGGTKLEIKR
Result block: 13.8
